Assay: PK in dog, oral suspension
Type: in vivo, Beagle dogs
Settings: dog, plasma; Beagle dogs, PO: 10 mg/kg, suspension in 0.5% CMC-Na
assay_endpoint: Cmax (ng/mL)

1) Cc1cc(Nc2nc(C[C@@]3(C(=O)[O-])CCN(Cc4cccc(Cl)c4F)[C@H](C)C3)cc(C)c2F)n[nH]1.[K+] [polymorph form I] : 45000

###

Assay: PK in dog, oral suspension
Assay type: in vivo, Beagle dogs
Settings: dog, plasma; Beagle dogs, PO: 10 mg/kg, suspension in 0.5% CMC-Na
assay_endpoint: AUC(0-t) (µg·h/mL)

1. Cc1cc(Nc2nc(C[C@@]3(C(=O)[O-])CCN(Cc4cccc(Cl)c4F)[C@H](C)C3)cc(C)c2F)n[nH]1.[K+] [polymorph form I] : 165

###

Test: PK in rat, oral suspension
Format: in vivo
Conditions: Sprague-Dawley, plasma, SD rats, PO: 5 mg/kg, suspension in 0.5% CMC-Na
assay_endpoint: AUC(0-t) (ng·h/mL)

1. Cc1cc(Nc2nc(C[C@@]3(C(=O)[O-])CCN(Cc4cccc(Cl)c4F)[C@H](C)C3)cc(C)c2F)n[nH]1.[K+] [polymorph form I] : 93300

###

Test: PK in rat, oral suspension
Assay type: in vivo
Conditions: Sprague-Dawley, plasma, SD rats, PO: 5 mg/kg, suspension in 0.5% CMC-Na
assay_endpoint: half-life

1) Cc1cc(Nc2nc(C[C@@]3(C(=O)[O-])CCN(Cc4cccc(Cl)c4F)[C@H](C)C3)cc(C)c2F)n[nH]1.[K+] [polymorph form I] : 4.11 h

###

Experiment: PK in dog, oral suspension
Type: in vivo, Beagle dogs
Conditions: dog, plasma; Beagle dogs, PO: 3 mg/kg, suspension in 0.5% CMC-Na
assay_endpoint: half-life (h)

1) Cc1cc(Nc2nc(C[C@@]3(C(=O)[O-])CCN(Cc4cccc(Cl)c4F)[C@H](C)C3)cc(C)c2F)n[nH]1.[K+] [polymorph form I] : 8.12

###

Experiment: PK in dog, oral suspension
Assay type: in vivo, Beagle dogs
Settings: dog, plasma; Beagle dogs, PO: 10 mg/kg, suspension in 0.5% CMC-Na
assay_endpoint: half-life (h)

1) Cc1cc(Nc2nc(C[C@@]3(C(=O)[O-])CCN(Cc4cccc(Cl)c4F)[C@H](C)C3)cc(C)c2F)n[nH]1.[K+] [polymorph form I] : 4.51
